System: Candida albicans ATCC 90028 | Read-out: MIC
Lab book: enter the figure in µM, no units written.

Record smiles: CC[C@H](C)[C@H](NC(=O)CNC(=O)[C@@H](N)CCCCN)C(=O)N[C@H](C(=O)NCC(=O)N[C@@H](CCSC)C(=O)N[C@@H](CC(C)C)C(=O)NCC(=O)N[C@@H](CCCCN)C(=O)N[C@@H](CC(C)C)C(=O)N[C@@H](Cc1ccccc1)C(N)=O)C(C)C
Measurement units: µM
MIC: 12

Lab note: need MIC with Candida albicans ATCC 90028 for entry "CC[C@H](C)[C@H](NC(=O)[C@H](CCCN=C(N)N)NC(=O)[C@H](CCC(N)=O)NC(=O)[C@@H](NC(=O)[C@@H](NC(=O)[C@H](CCCN=C(N)N)NC(=O)[C@@H](N)CCCCN)[C@@H](C)CC)C(C)C)C(=O)N[C@@H](CCCCN)C(=O)N[C@@H](CCCCN)C(=O)N[C@@H](Cc1ccccc1)C(=O)N[C@@H](CC(C)C)C(=O)N[C@@H](CCCN=C(N)N)C(=O)O" , please look it up.
2.5

# query: MIC | item "CC[C@H](C)[C@H](NC(=O)[C@H](CC(=O)O)NC(=O)[C@H](Cc1ccccc1)NC(=O)[C@H](CC(C)C)NC(=O)CN)C(=O)N[C@H](C(=O)N[C@@H](CCCCN)C(=O)N[C@@H](CCCCN)C(=O)N[C@H](C(=O)N[C@@H](CC(C)C)C(=O)N[C@@H](CCCCN)C(=O)N[C@@H](CC(C)C)C(=O)N[C@@H](CC(C)C)C(=O)N[C@@H](CCCCN)C(N)=O)C(C)C)C(C)C" | system: Candida albicans ATCC 90028
20

Please state recorded MIC (tested on Candida albicans ATCC 90028) of "CC(C)C[C@H](NC(=O)[C@H](CCCCN)NC(=O)[C@H](CCCN=C(N)N)NC(=O)[C@H](Cc1ccccc1)NC(=O)[C@H](Cc1ccccc1)NC(=O)[C@H](CCCCN)NC(=O)[C@H](CCCCN)NC(=O)[C@H](Cc1ccccc1)NC(=O)[C@H](CCCN=C(N)N)NC(=O)[C@H](CCCCN)NC(=O)[C@@H](N)C(C)C)C(=O)N[C@@H](CCCCN)C(=O)N[C@@H](CCCCN)C(=O)N[C@@H](CO)C(=O)N[C@H](C(=O)N[C@@H](CCCCN)C(=O)N[C@@H](CCCCN)C(N)=O)C(C)C"
29.1

----------
System: Candida albicans ATCC 90028
Property name: MIC

Record smiles: CC(C)C[C@H](NC(=O)[C@H](CC(C)C)NC(=O)[C@H](CC(N)=O)NC(=O)[C@H](CO)NC(=O)CNC(=O)[C@@H](NC(=O)[C@H](CCCCN)NC(=O)[C@H](CC(C)C)NC(=O)CNC(=O)[C@@H](NC(=O)[C@H](CCCCN)NC(=O)[C@H](CC(C)C)NC(=O)[C@H](CC(C)C)NC(=O)[C@H](CO)NC(=O)CNC(=O)[C@H](CC(C)C)NC(=O)[C@H](Cc1ccccc1)NC(=O)CN)[C@@H](C)O)C(C)C)C(N)=O
Property name: MIC
Result: ≥ 100 µM
--
Record smiles: CC[C@H](C)[C@H](NC(=O)[C@H](CCCN=C(N)N)NC(=O)[C@@H](N)CCCCN)C(=O)N[C@H](C(=O)N[C@@H](CCC(N)=O)C(=O)N[C@@H](CCCN=C(N)N)C(=O)N[C@@H](CCCCN)C(=O)N[C@@H](CCCCN)C(=O)N[C@@H](CC(=O)O)C(=O)N[C@@H](CCCCN)C(=O)N[C@@H](CCCCN)C(=O)N[C@@H](CCCN=C(N)N)C(=O)O)C(C)C
Property name: MIC
Result: ≥ 40 µM
--
Record smiles: CC(C)C[C@H](NC(=O)[C@H](CCCCN)NC(=O)[C@H](CCCN=C(N)N)NC(=O)[C@H](Cc1ccccc1)NC(=O)[C@H](Cc1ccccc1)NC(=O)[C@H](CCCCN)NC(=O)[C@H](CCCCN)NC(=O)[C@H](Cc1ccccc1)NC(=O)[C@H](CCCN=C(N)N)NC(=O)[C@H](CCCCN)NC(=O)[C@@H](N)C(C)C)C(=O)N[C@@H](CCCCN)C(=O)N[C@@H](CCCCN)C(=O)N[C@@H](CO)C(=O)N[C@H](C(N)=O)C(C)C
Property name: MIC
Result: ≥ 33 µM
--
Record smiles: CC(C)C[C@H](N)C(=O)N[C@@H](CCCN=C(N)N)C(=O)N[C@@H](CCC(N)=O)C(=O)N[C@@H](CO)C(=O)N[C@@H](CCC(N)=O)C(=O)N[C@@H](Cc1ccccc1)C(=O)N[C@H](C(=O)NCC(=O)N[C@@H](CO)C(=O)N[C@@H](CCCN=C(N)N)C(N)=O)C(C)C
Property name: MIC
Result: ≥ 42.5 µM

// lookup MIC for "CC[C@H](C)[C@H](NC(=O)CNC(=O)[C@H](CCCCN)NC(=O)[C@H](C)NC(=O)[C@@H](N)Cc1ccccc1)C(=O)N[C@@H](C)C(=O)NCC(=O)N[C@@H](CCSC)C(=O)N[C@@H](C)C(=O)NCC(=O)N[C@@H](CCCCN)C(=O)N[C@@H](CC(C)C)C(=O)N[C@@H](Cc1ccccc1)C(N)=O"
≥ 200 µM
